Biological target: Phosphodiesterase 7 (Homo sapiens, UniProt Q13946+Q9NP56)
Experiment: Inhibition of human Phosphodiesterase 7 of HUT-78 cells
Format: cell-based

{"columns": ["Compound", "IC50"],
 "data": [
  ["COc1ccc2c(c1)C(n1c(Br)nc3c(O)nc(N)nc31)CCC2 (centres undefined)", "4.22 µM"],
  ["Nc1nc(O)c2nc(Br)n(C3CCCc4ccccc43)c2n1 (centres undefined)", "4.88 µM"],
  ["Nc1nc(O)c2nc(Br)n(C3CCCc4cccc(Br)c43)c2n1 (centres undefined)", "1.31 µM"],
  ["Nc1nc(O)c2nc(Br)n(C3CCCc4ccc([N+](=O)[O-])cc43)c2n1 (centres undefined)", "2.31 µM"]
]}

----------
Molecular target: Phosphodiesterase 4 (Homo sapiens) (UniProt P27815+Q08499+Q07343+Q08493)
Assay: Inhibition of guinea pig Phosphodiesterase 4 at 10 uM
Format: protein assay
Conditions: Cavia porcellus, target entry is the homologue from another species

{"columns": ["Molecule", "inhibition (%)"],
 "data": [
  ["COc1ccc2c(c1)C(n1c(Br)nc3c(O)nc(N)nc31)CCC2 (configuration not stated)", 20],
  ["Nc1nc(O)c2nc(Br)n(C3CCCCc4ccc(F)cc43)c2n1 (configuration not stated)", 13],
  ["Nc1nc(O)c2nc(Br)n(C3CCCc4ccc([N+](=O)[O-])cc43)c2n1 (configuration not stated)", 42],
  ["Nc1nc(O)c2nc(Br)n(C3CCCc4cccc(Br)c43)c2n1 (configuration not stated)", 10],
  ["Nc1nc(O)c2nc(Br)n(C3CCCc4ccccc43)c2n1 (configuration not stated)", 15],
  ["Nc1nc(O)c2nc(Br)n(C3CCc4ccccc43)c2n1 (configuration not stated)", 27],
  ["Nc1nc(O)c2ncn(C3CCCc4ccccc43)c2n1 (configuration not stated)", 7]
]}
